Target: T1, recombinant human BCMA (ELISA antigen, construct not specified) (human, UniProt Q02223 1-54)
T1 construct: Fc 1-51; Fc/His 1-51; Fc 4-48) was coated in these ELISAs; also called recombinant BCMA; recombinant protein
T1 sequence: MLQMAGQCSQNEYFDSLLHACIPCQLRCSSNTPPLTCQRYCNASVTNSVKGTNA
Experiment: ELISA, 100 ng coated antigen
pEC50: −log10 of the molar value.
Readout Kind: pEC50

INSERT INTO results (binder, readout_kind, endpoint_result) VALUES
  ('anti-BCMA IgG antibody 5B5 (antibody, V domains shown, also called 5B5 antibody) VH: EVQLLESGGGLVQPGGSLRLSCAASGFTFSGHYWSWVRQAPGKGLEWVSTVSGSGGDTFYADSVKGRFTISRDNSKNTLYLQMNSLRAEDTAVYYCARGHSVMDVWGQGTLVTVSS VL: EIVLTQSPGTLSLSPGERATLSCRASQGIDSYVAWYQQKPGQAPRLLIYDASLRATGIPDRFSGSGSGTDFTLTISRLEPEDFAVYYCQQYNSWPITFGQGTKLEIKR', 'pEC50', 7.20);
